The reported measurements were obtained from patent US20130281445A1.

measurement-target: Choline Kinase alpha enzyme (Homo sapiens, UniProt P35790)
Construct: hChoKα1(M1-V457) (NP_001268); GST (N); made in house; host or cells: E. coli BL21(DE3)
Sequence (P35790 whole entry): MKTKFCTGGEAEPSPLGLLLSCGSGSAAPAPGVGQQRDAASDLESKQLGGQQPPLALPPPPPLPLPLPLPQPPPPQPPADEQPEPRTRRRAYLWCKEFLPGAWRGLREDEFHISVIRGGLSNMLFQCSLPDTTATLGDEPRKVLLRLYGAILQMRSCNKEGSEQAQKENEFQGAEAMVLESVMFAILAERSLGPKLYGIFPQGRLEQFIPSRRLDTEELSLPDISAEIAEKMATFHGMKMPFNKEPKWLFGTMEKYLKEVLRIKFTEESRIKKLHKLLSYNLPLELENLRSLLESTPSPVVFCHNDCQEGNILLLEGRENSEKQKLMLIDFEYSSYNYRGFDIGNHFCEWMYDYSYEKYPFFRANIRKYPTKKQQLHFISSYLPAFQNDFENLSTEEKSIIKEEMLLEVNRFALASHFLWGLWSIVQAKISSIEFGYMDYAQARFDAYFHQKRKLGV
measurement-notes: Choline Kinase Alpha Inhibition Assay (coupled NADH absorbance)
Assay type: biochemical
conditions-used: 20 nM enzyme, 200 μM choline chloride, 400 μM ATP, 25° C.; read-out: IC50 values, Choline Kinase Alpha inhibition
measure: IC50

For the compound Cc1ccccc1C(=O)C1CN2CCC1CC2 (centres unmarked) [Compound I-31, o-tolyl(quinuclidin-3-yl)methanone] , give its measured IC50 value.
1000 to 50000 nM

* * *

measurement-target: Choline Kinase alpha enzyme (Homo sapiens, UniProt P35790)
Construct: hChoKα1(M1-V457) (NP_001268); GST (N); made in house; host or cells: E. coli BL21(DE3)
measurement-notes: Choline Kinase Alpha Inhibition Assay (coupled NADH absorbance)
Assay type: biochemical
conditions-used: 20 nM enzyme, 200 μM choline chloride, 400 μM ATP, 25° C.; read-out: IC50 values, Choline Kinase Alpha inhibition
pIC50: −log10 of the molar value.
measure: pIC50

Example entries and their recorded answers appear below.
>>> df
                                   compound  recorded_measurement
0  O=C(c1nc2ccccc2s1)C1CN2CCC1CC2 (stereo not shown)          4.30 to 6.00
1  O=C(c1ccc(OC(F)(F)F)cc1)C1CN2CCC1CC2 (stereo not shown)          4.30 to 6.00
2  Cc1cccc(C(=O)C2CN3CCC2CC3)c1C (stereo not shown)          4.30 to 6.00
3  O=C(c1ccc(F)c(Cl)c1)C1CN2CCC1CC2 (stereo not shown)          4.30 to 6.00

Provide one value: measured pIC50 of Cc1ccc(Cl)cc1C(=O)C1CN2CCC1CC2 (stereo not shown)
4.30 to 6.00

Identify the reported pIC50 for the following entry. O=C(c1cccc(Cl)c1)C1CN2CCC1CC2 (stereo not shown)
4.30 to 6.00

Supply measured pIC50 of CC(O)c1ccc(C(=O)C2CN3CCC2CC3)cc1 (stereo not shown) in your reply.
4.30 to 6.00

Read the entry O=C(c1ccc(F)cc1)C1CN2CCC1CC2 (stereo not shown) and write its reported pIC50.
4.30 to 6.00

Hello, please tell me recorded pIC50 for this one: CC(C)(C)c1ccc(C(=O)C2CN3CCC2CC3)cc1 (stereo not shown)
6.00 to 7.00

Tell us which pIC50 value is on record for O=C(c1ccc(Cl)cc1)C1CN2CCC1CC2 (stereo not shown)
4.30 to 6.00

Identify measured pIC50 corresponding to O=C(c1ccc2ccccc2c1)C1CN2CCC1CC2 (stereo not shown)
6.00 to 7.00

Assign pIC50 to the following record: Cc1ncccc1C(=O)C1CN2CCC1CC2 (stereo not shown)
4.30 to 6.00

Give the reported value of pIC50 for this record: O=C(c1ccc2c(c1)OCO2)C1CN2CCC1CC2 (stereo not shown)
4.30 to 6.00

Quick one: give measured pIC50 for O=C(c1ccc(N2CCCCC2)cc1)C1CN2CCC1CC2 (stereo not shown)
6.00 to 7.00

Look up pIC50 of O=C(c1cccc(F)c1)C1CN2CCC1CC2 (stereo not shown) and report it.
4.30 to 6.00

Provide one value: measured pIC50 of COc1cc(OC)cc(C(=O)C2CN3CCC2CC3)c1 (stereo not shown)
4.30 to 6.00

* * *

measurement-target: Choline Kinase alpha enzyme (Homo sapiens)
Construct: hChoKα1(M1-V457) (NP_001268); GST (N); made in house; host or cells: E. coli BL21(DE3)
measurement-notes: Choline Kinase Alpha Inhibition Assay (coupled NADH absorbance)
Assay type: biochemical
conditions-used: 20 nM enzyme, 200 μM choline chloride, 400 μM ATP, 25° C.; read-out: IC50 values, Choline Kinase Alpha inhibition
// reported IC50 for each item listed

Solved entries:
In [3]: df
Out[3]:
                                   compound  measure  recorded_measurement
0  CCN(CC)c1ccc(C(=O)C2CN3CCC2CC3)cc1 (stereo not drawn)     IC50        100 to 1000 nM
1  CN(C)c1ccc(C(=O)C2CN3CCC2CC3)cc1Br (stereo not drawn)     IC50        100 to 1000 nM

Next:
Retrieve IC50 measured for O=C(Cc1ccccc1)C1CN2CCC1CC2 (stereo not drawn) and print it.
1000 to 50000 nM
